Target: CDK2/cyclin A (Homo sapiens, UniProt P20248)
Test: CDK2/cyclin A kinase assay, substrate pRb(773-928)
Format: biochemical
Settings: Phe159 substitutions; relative to H-His-Ala-Lys-Arg-Arg-Leu-Ile-Phe-NH2 (=1); pRb substrate, [ATP] = 100 μM
Square brackets hold non-standard residues; d marks the D form. Phe(3-F) = N[C@@H](Cc1cccc(F)c1)C(=O)O; 1Nal = N[C@@H](Cc1cccc2ccccc12)C(=O)O
measured-metric: Relative activity Kinase Inhibition
Please respond with just the number, no unit label.

substance	target	Relative activity Kinase Inhibition
H-His-Ala-Lys-Arg-Arg-Leu-Ile-1Nap-NH2 (H-HAKRRLI[1Nal]-NH2; SMILES CC[C@H](C)[C@H](NC(=O)[C@H](CC(C)C)NC(=O)[C@H](CCCNC(=N)N)NC(=O)[C@H](CCCNC(=N)N)NC(=O)[C@H](CCCCN)NC(=O)[C@H](C)NC(=O)[C@@H](N)Cc1c[nH]cn1)C(=O)N[C@@H](Cc1cccc2ccccc12)C(N)=O)	CDK2/cyclin A (Homo sapiens, UniProt P20248)	0.2

Ask | What value of Relative activity Kinase Inhibition has been reported for the following substance? H-His-Ala-Lys-Arg-Arg-Leu-Ile-mFPhe-NH2 (H-HAKRRLI[Phe(3-F)]-NH2; SMILES CC[C@H](C)[C@H](NC(=O)[C@H](CC(C)C)NC(=O)[C@H](CCCNC(=N)N)NC(=O)[C@H](CCCNC(=N)N)NC(=O)[C@H](CCCCN)NC(=O)[C@H](C)NC(=O)[C@@H](N)Cc1c[nH]cn1)C(=O)N[C@@H](Cc1cccc(F)c1)C(N)=O)
Reply | 0.8
